# pKi annotations
# tested_system: BCL2 G101V (Homo sapiens, UniProt P10415, G101V)
# assay_procedure: TR-FRET competitive binding assay, BCL2 G101V
# conditions_used: BCL2 G101V; Ki determined from IC50; read-out: TR_FRET EKI_Bcl2 G101V
Note: pKi values are expressed as the negative base-10 logarithm of concentration in M.

Recorded pKi, per entry:
{"chemical_string": "Cc1c(N(C(=O)c2cc(-c3cc4c(cc3C(=O)N3Cc5ccccc5C[C@H]3CN3CCCCC3)CN(C(=O)Cc3ccc(OCCN(C)CC5COC5)cc3)CC4)n(C)c2C)c2ccc(O)cc2)cc(C#N)n1C", "observable": "pKi", "data_value": 9.40}
{"chemical_string": "Cc1c(C(=O)N(c2ccc(O)cc2)c2cnc3c(cnn3C)c2)cc(-c2cc3c(cc2C(=O)N2Cc4ccccc4C[C@H]2C)CN(C(=O)Cc2ccc(OCCN4CCOCC4)cc2)CC3)n1C", "observable": "pKi", "data_value": 9.52}
{"chemical_string": "Cc1c(N(C(=O)c2cc(-c3cc4c(cc3C(=O)N3Cc5ccccc5C[C@H]3CN3CCCC3)CN(C(=O)Cc3ccc(OCCC5CCOCC5)cc3)CC4)n(C)c2C)c2ccc(O)cc2)cc(C#N)n1C", "observable": "pKi", "data_value": 9.52}
{"chemical_string": "Cc1c(N(C(=O)c2cc(-c3cc4c(cc3C(=O)N3Cc5ccccc5C[C@H]3CN3CCC(C)CC3)CN(C(=O)Cc3ccc(OCCN5CCOCC5)cc3F)CC4)n(C)c2C)c2ccc(O)cc2)cc(C#N)n1C", "observable": "pKi", "data_value": 9.40}
{"chemical_string": "Cc1c(N(C(=O)c2cc(-c3cc4c(cc3C(=O)N3Cc5ccccc5C[C@H]3C)CN(C(=O)Cc3ccc(C5CCN(CC(F)F)CC5)cc3F)CC4)n(C)c2C)c2ccc(O)cc2)cc(C#N)n1C", "observable": "pKi", "data_value": 8.89}
{"chemical_string": "Cc1c(N(C(=O)c2cc(-c3cc4c(cc3C(=O)N3Cc5ccccc5C[C@H]3C)CN(C(=O)Cc3ccc(OCCN5CCOC6(CCCC6)C5)cc3)CC4)n(C)c2C)c2ccc(O)cc2)cc(C#N)n1C", "observable": "pKi", "data_value": 8.57}

Inquiry: Would you mind telling me what pKi value was observed for "Cc1c(N(C(=O)c2cc(-c3cc4c(cc3C(=O)N3Cc5ccccc5C[C@H]3CN3CCCCC3)CN(C(=O)Cc3ccc(OCCN5CCN(CCF)CC5)cc3F)CC4)n(C)c2C)c2ccc(O)cc2)cc(C#N)n1C" ?
Reply text: 9.52

Inquiry: Now the same for "COc1ncc(N(C(=O)c2cc(-c3cc4c(cc3C(=O)N3Cc5ccccc5C[C@H]3C)CN(C(=O)Cc3ccc(OCCN5CCOCC5)cc3)CC4)n(C)c2C)c2ccc(O)cc2)cc1F"
Reply text: 9.05

Inquiry: Now the same for "Cc1c(C(=O)N(c2ccc(F)cc2)c2cnn(C)c2)cc(-c2cc3c(cc2C(=O)N2Cc4ccccc4C[C@H]2C)CN(C(=O)Cc2ccc(OCCN4CCOCC4)cc2)CC3)n1C"
Reply text: 8.26

Inquiry: Now the same for "Cc1c(N(C(=O)c2cc(-c3cc4c(cc3C(=O)N3Cc5ccccc5C[C@H]3CCN3CCCCC3)CN(C(=O)Cc3ccc(OCCN5CCOCC5)cc3F)CC4)n(C)c2C)c2ccc(O)cc2)cc(C#N)n1C"
Reply text: 10.00
